Molecular target: SST5 (Homo sapiens, UniProt P35346)
Sequence (P35346 whole entry): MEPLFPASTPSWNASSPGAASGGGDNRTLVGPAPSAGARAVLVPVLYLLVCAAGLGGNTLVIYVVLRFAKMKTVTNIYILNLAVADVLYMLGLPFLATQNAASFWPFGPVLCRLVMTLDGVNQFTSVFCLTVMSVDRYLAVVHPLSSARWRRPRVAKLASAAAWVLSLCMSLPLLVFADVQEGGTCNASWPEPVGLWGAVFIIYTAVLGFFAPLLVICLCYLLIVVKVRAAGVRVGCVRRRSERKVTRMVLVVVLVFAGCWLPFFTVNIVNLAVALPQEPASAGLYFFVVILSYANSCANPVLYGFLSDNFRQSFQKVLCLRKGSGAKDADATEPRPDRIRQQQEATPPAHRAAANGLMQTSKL
Assay: Hit Hunter cAMP XS+ assay, SST5 activation via Gi (reduction of forskolin-stimulated cAMP)
Format: cell-based
Settings: selectivity for SST5 over SST2
*1 amine or outer side, *2 acyl side, *3 side chain or, on linkers, in order; H or OH if unused. Where a SMILES comes first, the peptide text is derived from it. [ ]: non-standard residue; d: D form. The star is where a group is joined. Ala(piperidin-4-yl) = O=C([C@H](CC1CCN([*:3])CC1)N[*:1])[*:2]; dTrp(4-OMe) = COc1cccc2[nH]cc(C[C@@H](N)C(=O)O)c12; Ala(piperazin-1-yl) = N[C@@H](CN1CCNCC1)C(=O)O; Morpholine(3S-CO) = O=C(O)[C@@H]1COCCN1; d(hPhe) = N[C@H](CCc1ccccc1)C(=O)O; hPhe = N[C@@H](CCc1ccccc1)C(=O)O; Tic = O=C(O)[C@@H]1Cc2ccccc2CN1; Bn = c1ccc(C*)cc1
assay endpoint: SST5/2 Selectivity
Just the number, please, no unit after it.

1. COc1cccc2[nH]cc(C[C@H]3NC(=O)[C@H](CCc4ccccc4)NC(=O)[C@@H]4COCCN4C(=O)[C@@H]4Cc5ccccc5CN4C(=O)[C@H](Cc4ccc(OCc5ccccc5)cc4)NC(=O)[C@H](CC4CCNCC4)NC3=O)c12 [Example 46] (cyclo([Tic][Morpholine(3S-CO)][hPhe][dTrp(4-OMe)][Ala(piperidin-4-yl)]Y(Bn))) | 527.6

With those in mind, consider the next molecule.
The reported value for COc1cccc2[nH]cc(C[C@H]3NC(=O)[C@@H](CCc4ccccc4)NC(=O)[C@@H]4COCCN4C(=O)[C@@H]4Cc5ccccc5CN4C(=O)[C@H](Cc4ccc(OCc5ccccc5)cc4)NC(=O)[C@H](CN4CCNCC4)NC3=O)c12 [Example 63] (cyclo([Tic][Morpholine(3S-CO)][d(hPhe)][dTrp(4-OMe)][Ala(piperazin-1-yl)]Y(Bn))) in terms of SST5/2 Selectivity is 24.4
